System: CP247
test.protocol: qHTS profiling for inhibitors of Plasmodium falciparum proliferation (AID 504749); note: nearly all actives have a fitted effect of over 60% in size
condition.notes: P. falciparum in erythrocytes, SYBR Green DNA, 72 h; series mostly up to 28.7 µM
Inconclusive results are not listed. Activity calls are given as the source filed them. Calls come from the whole dose curve; as a rule, active = well fitted inhibition curve with a large enough effect; inconclusive = small, poorly fitted or top-dose-only effect; inactive = flat fitted curve, though single readings scatter. Where a SMILES comes first, the peptide text is derived from it. [ ]: non-standard residue; d: D form. pGlu = O=C1CC[C@@H](C(=O)O)N1; Thz = O=C(O)[C@@H]1CSCN1
Labels: t (active), f (inactive)

INSERT INTO measurements (compound, test_system, assigned_class) VALUES
  ('CC1(C)[C@@H](O)CC[C@]2(C)[C@H]3C(=O)C=C4[C@@H]5C[C@@](C)(C(=O)O)CC[C@]5(C)CC[C@@]4(C)[C@]3(C)CC[C@@H]12', 'CP247', 'f'),
  ('COc1cc(/C=C/C(=O)CC(=O)/C=C/c2ccc(O)c(OC)c2)ccc1O', 'CP247', 't'),
  ('Cc1ccc(O)c(-n2nc3ccccc3n2)c1', 'CP247', 'f'),
  ('Cc1cc(O)c2ccccc2c1O', 'CP247', 'f'),
  ('COc1cc(CNC(=O)CCCC/C=C/C(C)C)ccc1O', 'CP247', 'f'),
  ('O=C1CN(/N=C/c2ccc(-c3ccc([N+](=O)[O-])cc3)o2)C(=O)N1', 'CP247', 't'),
  ('CCCCCCCCCCCCCCCC(=O)OC(C)C', 'CP247', 'f'),
  ('CCCOC(=O)c1ccc(O)cc1', 'CP247', 'f'),
  ('O=C1CC[C@@H](C(=O)N2CSC[C@H]2C(=O)O)N1 ([pGlu]-[Thz]-OH)', 'CP247', 'f'),
  ('COc1ccc(-c2cc(=S)ss2)cc1', 'CP247', 'f'),
  ('Nc1ccc(O)c(C(=O)O)c1', 'CP247', 'f');

---

Tested on: ATS95
test.protocol: qHTS profiling for inhibitors of Plasmodium falciparum proliferation (AID 504749); note: nearly all actives have a fitted effect of over 60% in size
condition.notes: P. falciparum in erythrocytes, SYBR Green DNA, 72 h; series mostly up to 28.7 µM
Results filed as inconclusive are left out. Activity calls are given as the source filed them. Calls follow the shape of the dose curve; as a rule, active = well fitted inhibition curve with a large enough effect; inconclusive = small, poorly fitted or top-dose-only effect; inactive = flat fitted curve, though single readings scatter.
Labels: true (1) = active, false (0) = inactive

INSERT INTO measurements (compound, assigned_class) VALUES
  ('COc1cc(CNC(=O)CCCC/C=C/C(C)C)ccc1O', 'false (0)'),
  ('CCCCCCCCCCCCCCCCCC(=O)O', 'false (0)'),
  ('CC(C(=O)O)c1ccc2c(c1)[nH]c1ccc(Cl)cc12 (configuration not stated)', 'false (0)'),
  ('CC(=O)[C@]1(O)Cc2c(O)c3c(c(O)c2[C@@H](O[C@H]2C[C@H](N)[C@H](O)[C@H](C)O2)C1)C(=O)c1c(O)cccc1C3=O', 'true (1)'),
  ('CCCCC[C@H](O)/C=C/[C@@H]1[C@@H](C/C=C\CCCC(=O)O)[C@@H](O)C[C@H]1O', 'false (0)'),
  ('CCOC(=O)c1ccccc1O', 'false (0)'),
  ('Nc1ccc(O)c(C(=O)O)c1', 'false (0)'),
  ('CN1[C@@H]2CC[C@H]1CC(OC(c1ccccc1)c1ccccc1)C2 (some centres not stated)', 'true (1)'),
  ('CC1(C)[C@@H](O)CC[C@]2(C)[C@H]3C(=O)C=C4[C@@H]5C[C@@](C)(C(=O)O)CC[C@]5(C)CC[C@@]4(C)[C@]3(C)CC[C@@H]12', 'false (0)'),
  ('O=C(CCN1CCN(CCO)CC1)N1c2ccccc2Sc2ccc(C(F)(F)F)cc21', 'false (0)'),
  ('O=C1CN(/N=C/c2ccc(-c3ccc([N+](=O)[O-])cc3)o2)C(=O)N1', 'false (0)'),
  ('Nc1cc(-c2ccncc2)c[nH]c1=O', 'false (0)'),
  ('Cc1ccccc1CNc1ncnc2c1ncn2C1OC(CO)C(O)C1O (configuration not stated)', 'false (0)'),
  ('C=CCCCCCCCCC(=O)O', 'false (0)'),
  ('c1ccc2sc(SN3CCOCC3)nc2c1', 'false (0)'),
  ('C#C[C@]1(O)CC[C@H]2[C@@H]3CCc4cc(O)ccc4[C@H]3CC[C@@]21C', 'false (0)'),
  ('CCC1C(=O)OCC1Cc1cncn1C (configuration not stated)', 'false (0)'),
  ('Nc1ccc(C(=O)O)c(O)c1', 'false (0)'),
  ('O=C(O)/C=C/C(O)c1ccc(Cl)cc1 (configuration not stated)', 'false (0)'),
  ('COc1ccc(-c2cc(=S)ss2)cc1', 'false (0)'),
  ('Oc1c(Br)cc(Br)c2cccnc12', 'false (0)'),
  ('O=C(O)[C@H](CC(=O)N1C[C@H]2CCCC[C@H]2C1)Cc1ccccc1', 'false (0)');

---

test.protocol: qHTS Assay for Lipid Storage Modulators (AID 1519)
condition.notes: Drosophila S3 cells, BODIPY lipid droplet/cell ratio, laser cytometry; measured here: lipid channel max response; cells loaded with oleic acid
Results filed as inconclusive are left out.
Each entry below carries its reported max response.
quantity.measured: max response (%)

INSERT INTO results (molecule, quantity_measured, reported_result) VALUES
  ('NCCCCCCCCCCN', 'max response', 42.6),
  ('O=C(O)CNC(=O)C(CS)Cc1ccccc1 (centres undefined)', 'max response', -2.71),
  ('N=C(N)N', 'max response', 23.8),
  ('O=C1NC(O)=NC1(c1ccccc1)c1ccccc1', 'max response', -13.3),
  ('O=C(Nc1cccc(C(=O)Nc2ccc(S(=O)(=O)O)c3cc(S(=O)(=O)O)cc(S(=O)(=O)O)c23)c1)Nc1cccc(C(=O)Nc2ccc(S(=O)(=O)O)c3cc(S(=O)(=O)O)cc(S(=O)(=O)O)c23)c1', 'max response', -6.27),
  ('O=c1[nH]c2cc(C(F)(F)F)ccc2n1-c1cc(C(F)(F)F)ccc1O', 'max response', 34),
  ('CCCCCCCCCCCCCCCC(=O)NCC(COP(=O)([O-])OCC[N+](C)(C)C)OCC (centres undefined)', 'max response', -25),
  ('S=C(S)OC1CC2CC1C1CCCC21 (centres undefined)', 'max response', -14.9),
  ('O=C(O)CCCC[C@@H]1CCSS1', 'max response', -29),
  ('O=C(OCc1ccccc1)c1ccccc1', 'max response', 6.88),
  ('CCN1/C(=C/C(C)=O)Sc2ccc(OC)cc21', 'max response', -21.7),
  ('CCCCCCCC/C=C\CCCCCCCC(=O)NCCO', 'max response', 20.6),
  ('CC(C)NC[C@H](O)COc1cccc2[nH]ccc12', 'max response', -1.16),
  ('OCC1O[C@H](O)C(Cl)C(O)C1O (some centres undefined)', 'max response', -14.7),
  ('O=c1[nH]c2cc([N+](=O)[O-])c([N+](=O)[O-])cc2[nH]c1=O', 'max response', 2.64),
  ('Nc1cc(-c2ccncc2)c[nH]c1=O', 'max response', 9.64),
  ('NCCSSCCN', 'max response', 16.2),
  ('COc1cc(NC(C)CCCN)c2ncccc2c1 (centres undefined)', 'max response', 28.1),
  ('Cc1ccc(C(=O)O[C@H](C(=O)O)[C@@H](OC(=O)c2ccc(C)cc2)C(=O)O)cc1 (tested in a mixture with another compound)', 'max response', 38.6),
  ('NC(CCCP(=O)(O)O)C(=O)O (centres undefined)', 'max response', -9.55),
  ('CN1[C@@H](CC(=O)c2ccccc2)CCC[C@H]1C[C@H](O)c1ccccc1', 'max response', 23.7),
  ('CN(C)c1ccc(/C=C2\C(=O)Nc3ccccc32)cc1', 'max response', -23.7),
  ('CCCCCCCCCCCCCCCCCC(=O)NCC(COP(=O)([O-])OCC[N+](C)(C)C)OCC (centres undefined)', 'max response', 12.1),
  ('CN1CCc2cc(O)c(O)cc2C(c2ccccc2)C1 (centres undefined)', 'max response', 29.5);

---

test.system: RecQ-like DNA helicase BLM (Homo sapiens)
test.protocol: qHTS Validation Assay for Inhibitors of Bloom's syndrome helicase (BLM) (AID 2364)
condition.notes: BLM helicase DNA unwinding, fluorescence, in vitro; series mostly up to 57.1 µM
Inconclusive results are not listed. Active and inactive are the calls of the source. Calls come from the whole dose curve; as a rule, active = well fitted inhibition curve with a large enough effect; inconclusive = small, poorly fitted or top-dose-only effect; inactive = no such curve, though single readings can be large or run the other way.
Labels: Yes (active), No (inactive)

INSERT INTO assay_data (compound, assigned_class) VALUES
  ('N#C/C(=C\c1ccc(O)c(O)c1)C(=O)c1ccc(O)c(O)c1', 'Yes'),
  ('C=C[C@@H]1CN2CC[C@@H]1C[C@H]2[C@H](O)c1ccnc2ccc(OC)cc12', 'No'),
  ('O=C(O)CC[C@@H](C(=O)O)N1C(=O)c2ccccc2C1=O', 'No'),
  ('COc1cccc(OC)c1OCCNCC1COc2ccccc2O1 (stereo unspecified)', 'No'),
  ('CN1CCc2cccc3c2C1Cc1ccc(O)c(O)c1-3 (stereo unspecified)', 'No'),
  ('NCCNC(=O)c1ncsc1-c1cccc(F)c1', 'No');

Entry source: PubChem BioAssay (NCATS)
